Test system: Mtb strain H37Rv
Experiment: MIC determination against Mtb H37Rv in different media
Format: cell-based, Mycobacterium tuberculosis
Conditions: Mycobacterium tuberculosis, H37RV; read-out: MIC 7H9/ADC
Some compounds, each annotated with its measured MIC.
Report only the number, with the unit µM understood.

CC(c1ccccc1C(F)(F)F)c1nc(C(=O)NCc2ccccc2)c(O)c(=O)n1C (stereo not shown) [Compound P15]	18.3

# evaluate next
[ask] Reported MIC for CCn1c(Cc2ccccc2C(F)(F)F)nc(C(=O)NCc2ccccc2)c(O)c1=O [Compound P04] : what is it?
[reply] 2.3

----------
Test system: Mtb in J774 murine macrophages
Assay: Intracellular killing assay in murine macrophage J774
Conditions: 1–50-fold MIC, 4 or 7 days
measurement kind: activity against Mtb replication in J774 murine macrophages

CCn1c(Cc2ccccc2C(F)(F)F)nc(C(=O)NCc2ccccc2)c(O)c1=O [Compound P04]	active
Cn1c(Cc2ccccc2C(F)(F)F)nc(C(=O)NCc2ccccc2)c(O)c1=O [Compound P01]	active
Cn1c(Cc2ccccc2C(F)(F)F)nc(C(=O)NCc2ccccc2F)c(O)c1=O [Compound P09]	active
Cn1c(Cc2ccccc2C(F)(F)F)nc(C(=O)NCc2ccccn2)c(O)c1=O [Compound P07]	active

----------
System: Mtb strain H37Rv
Experiment: MIC determination against Mtb H37Rv in different media
Format: cell-based, Mycobacterium tuberculosis
Settings: Mycobacterium tuberculosis, H37RV; read-out: MIC 7H9/ADC
Recorded measurements of MIC, one per entry

Record excerpt, results attached:
Cn1c(Cc2ccccc2C(F)(F)F)nc(C(=O)NCc2ccccc2F)c(O)c1=O	4.7 µM
Cn1c(Cc2ccccc2C(F)(F)F)nc(C(=O)NCc2ccc3c(c2)OCO3)c(O)c1=O	> 100 µM
Cn1c(Cc2ccccc2)nc(C(=O)NCc2ccccc2)c(O)c1=O	9.4 µM

API: the following record is the query input.
[ask] If you can, please state the reported MIC value of `COc1c(C(=O)NCc2ccccc2)nc(Cc2ccccc2C(F)(F)F)n(C)c1=O` .
[reply] > 100 µM

----------
Test: in vitro
Assay type: cell-based
Conditions: human; HepG2 cells in DMEM/10% FBS supplemented with glucose; read-out: Cytotoxicity (IC50) Glucose
pIC50: −log10 of the molar value.
Items are presented alongside their recorded pIC50.

Cn1c(Cc2ccccc2C(F)(F)F)nc(C(=O)NCc2cccnc2)c(O)c1=O	< 4.00
CC(NC(=O)c1nc(Cc2ccccc2C(F)(F)F)n(C)c(=O)c1O)c1ccccc1 (centres unmarked)	< 4.00
COc1c(C(=O)NCc2ccccc2)nc(Cc2ccccc2C(F)(F)F)n(C)c1=O	< 4.00

Continue with the molecule presented below.
[ask] pIC50 for `Cn1c(Cc2ccccc2C(F)(F)F)nc(C(=O)NCc2ccccc2)c(O)c1=O` ?
[reply] < 4.00

----------
System: Mtb strain H37Rv
Experiment: MIC determination against Mtb H37Rv in different media
Type: cell-based, Mycobacterium tuberculosis
Conditions: Mycobacterium tuberculosis, H37RV, Mtb H37Rv in GAST (Table 2); read-out: MIC GAST
Listing: MIC of selected molecules
Provide the reading as a plain figure in µM.

Below are worked cases with known answers.
Cn1c(Cc2ccccc2C(F)(F)F)nc(C(=O)NCc2ccc3c(c2)OCO3)c(O)c1=O	37.5
Cn1c(Cc2ccccc2C(F)(F)F)nc(C(=O)NCc2ccccc2)c(O)c1=O	0.59
Cn1c(Cc2ccccc2C(F)(F)F)nc(C(=O)NCc2ccccn2)c(O)c1=O	1.2
Cn1c(Cc2ccccc2C(F)(F)F)nc(C(=O)NCC2CCCCC2)c(O)c1=O	12.5
Cn1c(Cc2ccccc2C(F)(F)F)nc(C(=O)NCc2cccnc2)c(O)c1=O	4.7
CC(c1ccccc1C(F)(F)F)c1nc(C(=O)NCc2ccccc2)c(O)c(=O)n1C (stereo not shown)	3.1
Cn1c(Cc2ccccc2C(F)(F)F)nc(C(=O)CCc2ccccc2)c(O)c1=O	12.5
Cn1c(Cc2ccccc2C(F)(F)F)nc(C(=O)Nc2ccccc2)c(O)c1=O	1.6

[ask] Which MIC is reported for this molecule? `Cn1c(Cc2ccccc2C(F)(F)F)nc(C(=O)NCc2ccc(F)cc2)c(O)c1=O`
[reply] 2.3

[ask] Any idea what its MIC is? The molecule is `Cn1c(Cc2ccccc2)nc(C(=O)NCc2ccccc2)c(O)c1=O`
[reply] 3.1

[ask] Sample `Cn1c(Cc2ccccc2C(F)(F)F)nc(C(=O)NCc2ccccc2F)c(O)c1=O` — what was its MIC?
[reply] 0.59

[ask] Entry `CCn1c(Cc2ccccc2C(F)(F)F)nc(C(=O)NCc2ccccc2)c(O)c1=O` : reported MIC = ?
[reply] 0.4

Cited source: paper PMC6257622
